TARGET DESC: recombinant human AChE (Homo sapiens)
Structures can show the parent of a compound that is named as a salt.
Values of Efficacy strictly less than -8 map to Met, and values of at least -8 map to Not met.

For orientation, consider the following solved cases.
| COMPOUND | LABEL |
| --- | --- |
| COc1ccc(OC(F)(F)F)cc1CN[C@H]1CCCN[C@H]1c1ccccc1 [CP-122721, reference compound] | Not met |
| COc1ccc(C(=O)NCc2ccc(OCCN(C)C)cc2)cc1OC.Cl [Itopride hydrochloride, reference compound] | Not met |
| CCN(CC)CCNC(=O)c1c(C)[nH]c(/C=C2\C(=O)Nc3ccc(F)cc32)c1C [Sunitinib malate, reference compound] | Met |
| COc1cc2nc(N3CCN(C(=O)C4COc5ccccc5O4)CC3)nc(N)c2cc1OC (centres unmarked) [Doxazosin mesylate] | Not met |
| CCN(CC)CCOc1ccc2c(c1)C(=O)c1cc(OCCN(CC)CC)ccc1-2 [Tilorone, reference compound] | Met |
| CCOP(=S)(OCC)SCSc1ccc(Cl)cc1 | Met |
| COc1cc(N)c(Cl)cc1C(=O)NC1CN2CCC1CC2.Cl (centres unmarked) [Zacopride hydrochloride] | Not met |
| CCCCCC1Nc2cc(C(F)(F)F)c(S(N)(=O)=O)cc2S(=O)(=O)N1 (centres unmarked) [Penflutizide] | Met |

Now let's try a different one.
Quick check: Efficacy of `Cc1ccc(CCn2c3c(c4cc(Cl)ccc42)CN(C)CC3)cn1` under -8?
Not met

====

TARGET DESC: recombinant human AChE (Homo sapiens, UniProt P22303)
Sequence (P22303 32-614): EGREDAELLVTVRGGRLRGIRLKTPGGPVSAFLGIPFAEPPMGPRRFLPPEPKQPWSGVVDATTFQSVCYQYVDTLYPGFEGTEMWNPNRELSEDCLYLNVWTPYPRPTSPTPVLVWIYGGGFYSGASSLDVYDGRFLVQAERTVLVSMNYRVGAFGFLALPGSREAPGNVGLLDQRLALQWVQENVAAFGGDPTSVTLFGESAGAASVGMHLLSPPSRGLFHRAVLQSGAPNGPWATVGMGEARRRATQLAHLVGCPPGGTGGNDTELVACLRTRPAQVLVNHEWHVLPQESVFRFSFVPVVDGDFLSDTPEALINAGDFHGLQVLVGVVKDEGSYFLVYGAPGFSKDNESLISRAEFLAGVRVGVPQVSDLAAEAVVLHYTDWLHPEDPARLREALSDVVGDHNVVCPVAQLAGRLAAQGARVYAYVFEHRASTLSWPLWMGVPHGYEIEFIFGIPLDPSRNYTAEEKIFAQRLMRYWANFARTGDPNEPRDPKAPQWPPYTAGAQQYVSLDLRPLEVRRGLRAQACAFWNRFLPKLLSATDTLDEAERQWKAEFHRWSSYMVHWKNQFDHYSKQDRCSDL
Structures can show the parent of a compound that is named as a salt.
MEASUREMENT KIND: CC-v2 (curve classes)
Write no unit; give the number alone.

Examples with answers:
| COMPOUND | TARGET DESC | MEASUREMENT KIND | RECORDED RESULT |
| --- | --- | --- | --- |
| CNC(=O)/C=C(\C)OP(=O)(OC)OC | recombinant human AChE (Homo sapiens, UniProt P22303) | CC-v2 (curve classes) | 4 |
| Cl.Clc1cc(Cl)c2c(c1)N=C1CCCCCN1C2 | recombinant human AChE (Homo sapiens, UniProt P22303) | CC-v2 (curve classes) | -1.1 |
| CCCN(CCc1cccs1)[C@H]1CCc2c(O)cccc2C1 | recombinant human AChE (Homo sapiens, UniProt P22303) | CC-v2 (curve classes) | 4 |
| CCOC(=O)C(SP(=S)(OC)OC)c1ccccc1 (centres unmarked) [Phenthoate] | recombinant human AChE (Homo sapiens, UniProt P22303) | CC-v2 (curve classes) | -3 |

Here is another compound to look at.
Please provide the recorded CC-v2 (curve classes) for COc1cc2nc(N3CCN(C(=O)C4CCCO4)CC3)nc(N)c2cc1OC (centres unmarked) [Terazosin hydrochloride] , tested on recombinant human AChE (Homo sapiens, UniProt P22303).
4

====

recombinant human AChE (Homo sapiens): reported Efficacy for various compounds.
Write no unit; give the number alone.

Please provide the recorded Efficacy for `Cc1nc2ccccn2c(=O)c1CCN1CCC(C(=O)c2ccc(F)cc2)CC1` , tested on recombinant human AChE (Homo sapiens).
0

Please provide the recorded Efficacy for `CNC(=O)ON=C(CSC)C(C)(C)C` , tested on recombinant human AChE (Homo sapiens).
-91.728
